- assaySummary: NCI Yeast Anticancer Drug Screen. Data for the mec2-1 strain (AID 157)
- conditionsUsed: S. cerevisiae mec2-1 strain, at 50.0 µM, stronger effect = higher value
- Description: Growth inhibition of yeast strains with defined genetic alterations is measured as a screen for potential anti-cancer activity. Selected strains with alterations in DNA damage repair or cell cycle control were exposed to compounds and growth inhibition was measured relative to vehicle treated controls. The strain used in this assay is mec2-1
The panel holds about 79,000 compounds, 15% with a hit somewhere; the sample as a whole holds those more often.
reportedMetric: growth inhibition (%)
Could you give me the number in %? Just the number is fine.

The cases that follow already have their growth inhibition on record.
{"compound": "CNc1cc2oc(=O)cc(C)c2cc1C", "growth inhibition (%)": -12.5}
{"compound": "COc1ccc(C(=O)N2CCN(C)CC2)cc1OC", "growth inhibition (%)": -3.95}
{"compound": "COC(=O)C1(c2ccccc2)Cc2ccccc2-c2ccccc21 (stereo unspecified)", "growth inhibition (%)": -9.5}
{"compound": "CNC(=O)c1ccccc1C", "growth inhibition (%)": -6}
{"compound": "CCCCCCCCCC(=O)OC", "growth inhibition (%)": -16.9}

Enquiry: # lookup: growth inhibition of Cc1nc(N)nc(C)c1Cl
Return: 3.4

Enquiry: What do you have for NC(CCC(=O)OCCn1c2ccccc2c2ccccc21)C(=O)O (stereo unspecified) ?
Return: -2.4

Enquiry: What do you have for Nc1nc(N)nc(CCCCc2nc(N)nc(N)n2)n1 ?
Return: -16

Enquiry: What do you have for FC(F)(F)c1nc(Cl)c2cn[nH]c2n1 ?
Return: 39.6
